Give measured TGI for each item. Keep answers brief.
Tested on: RXF 393 renal
Experiment: NCI tumour cell line growth inhibition, 48 h

Q. Bench note: what TGI did CCCCCCCCCCCCOP(=O)(O)OP(=O)(O)OCC1OC(n2ccc(N)nc2=O)CC1O (configuration not stated) show?
A. > 100 µM

Q. Please answer likewise for `CSCC[C@@H]1C(=O)N(C)[C@H](C(C)(C)C)N1C(=O)c1ccccc1`
A. > 100 µM

Q. Further, for CC(Oc1ccccc1Cl)C(=O)NN1C(=O)CC(=O)N(c2ccccc2)C1=S (configuration not stated) ?
A. > 100 µM

Q. Also, Clc1cc2nn(C3CCCCO3)nc2cc1Cl (configuration not stated) please.
A. > 100 µM

Q. Follow-up item: `COC(OC)c1cc2c(cc1C=O)OCO2`
A. > 100 µM

List the reported TGI of each compound below.
1. CC(=O)OC(CC1(C)C(C)CCC23COC(=O)C2=CCCC31)c1ccoc1 (configuration not stated)
2. Cc1c(-c2ccc(C3CCCCC3)cc2)nc2ccc(F)cc2c1C(=O)O
3. CN1CN(C2OC(CO)C(O)C2O)c2nc(N)[nH]c(=O)c21 (configuration not stated)
4. O=P1(c2ccccc2)c2ccccc2-c2ccccc21
5. O=C/C1=C/C2=Cc3ccccc3C=C(/C=C(/C=O)C1)C2
6. NCCc1ccc(S(=O)(=O)F)cc1
7. COC1CCON1C(=O)c1ccccc1 (configuration not stated)

A.
27.7 µM
> 100 µM
> 100 µM
> 100 µM
88.6 µM
98.2 µM
> 10 µM

* * *

For each of the compounds below, state its TGI.
System: UACC-62 melanoma
Assay: NCI tumour cell line growth inhibition, 48 h

As a guide, the following entries are already answered.
Q. # lookup: TGI of `CC1=CC(C)=NN=C(N)N1S(=O)(=O)c1cc(C)c(Cl)cc1SCc1ccccc1`
A. > 100 µM

Q. And what about the compound `CCOC(=O)C(=O)C=P(c1ccccc1)(c1ccccc1)c1ccccc1` ?
A. > 100 µM

Q. Now try `CCCc1cn2c(/C=N/N=C(N)N)c(-c3cccc([N+](=O)[O-])c3)nc2s1` .
A. 3.15 µM

Q. Same question, `O=C(O)[C@H](Cc1c[nH]c2ccccc12)N1C(=O)c2ccccc2C1=O` this time
A. > 100 µM

Would you kindly look at the next entry?
Q. Requested read-out: TGI. Entry: COC(=O)C1CCC(=S)N1C(=O)OCc1ccccc1 (stereo not given)
A. > 100 µM

* * *

Tested on: LXFL 529 NSCLC
Assay: NCI tumour cell line growth inhibition, 48 h
Outcome label depends on TGI relative to 20 µM: at/above gives y, below gives n.

Q. Could you tell me if the measured TGI of `CCC[CH2][Sn]([CH2]CCC)([O]c1cccc2cccnc12)[O]c1cccc2cccnc12` reaches 20 µM or more?
A. n

Q. Same thing, different compound: CC(C)C12Cc3c(ccc4ccccc34)OC1(C)Oc1ccc3ccccc3c1C2 (stereo not given)
A. y

Q. Continue with `Cc1cccc(-n2c(N)c(-c3nc4ccccc4[nH]3)sc2=S)c1`
A. y

Q. Next: `Cc1c[n+]2c3ccccc3c3ccccc3c2s1`
A. y

Continuing:
Q. Hi, just wondering whether `O=C(Cc1ccccc1F)NC1=C(Cl)C(=O)c2ccccc2C1=O` shows TGI of 20 µM or higher.
A. n

Q. Repeat with `C=CCN1/C(=C(\C#N)c2nc3ccccc3[nH]2)Sc2c1nc[nH]c2=O`
A. y

Q. Do the same for COc1cc2c(cc1OC)C1C(=O)c3c(O)cc4c(c3OC1CO2)C=CC(C)(C)O4 (stereo not given) please
A. y

Q. Also `O=C(Nc1cccc2c1C(=O)c1c(NC(=O)c3ccccc3)ccc(Nc3cccc4c3C(=O)c3ccccc3C4=O)c1C2=O)c1ccccc1` , if possible.
A. y

Q. Then what about the compound `CN(C)CCN1C(=O)c2cccc3cc([N+](=O)[O-])cc(c23)C1=O` ?
A. n

Q. Now this one: `CO[C@@H]1C=C[C@@]23c4cc5c(cc4CN(C[C@@H]2O)[C@H]3C1)OCO5`
A. y

Q. // same read-out, input: `O=C/C1=C/C2=Cc3ccccc3C=C(/C=C(/C=O)C1)C2`
A. y

Q. Also, COc1cc2c3cc1Oc1c(O)c(OC)cc4c1C(Cc1ccc(O)c(c1)Oc1ccc(cc1)CC3N(C)CC2)N(C)CC4 (stereo not given) please.
A. n
